# pIC50 values compiled below
# PROTOCOL_TEXT: Antiproliferative activity against human HTB-1 cells by MTT assay
# Type: functional, cell-based
pIC50: −log10 of the molar value.
MEASURE_NAME: pIC50

| SMILES_STR | RESULT |
| --- | --- |
| COc1cc2c3c(c1[N+](=O)[O-])CCN=C3c1ccccc1C2=O | < 5.68 |
| COc1cc2ccnc3c2c(c1[N+](=O)[O-])C(=O)c1ccccc1-3 | < 5.68 |
| COc1ccc2c(c1)C(=O)c1c(NCCc3ccc(O)cc3)c(OC)cc3ccnc-2c13 | < 5.52 |
| COc1cc2c3c(nccc3c1)-c1ccccc1C2=O | < 5.68 |
| COc1ccc2c(c1)C(=O)c1c(N)c(OC)c(OC)c3ccnc-2c13 | < 5.52 |
| COc1cc2c3c(c1)C(=O)c1ccccc1C3=NCC2 | < 5.68 |
| COc1cc2ccnc3c2c(c1N)C(=O)c1ccccc1-3 | < 5.68 |
| COc1cc2c3c(c1[N+](=O)[O-])C(=O)c1ccccc1C3=NCC2 | < 5.68 |
| COc1cc2c3c(nccc3c1N)-c1ccccc1C2=O | < 5.68 |
| CNc1c(OC)cc2ccnc3c2c1C(=O)c1cc(OC)ccc1-3 | < 5.68 |
| COc1ccc2c(c1)C(=O)c1c(NCCc3ccc(O)cc3)c(OC)c(OC)c3ccnc-2c13 | < 5.68 |
